Cited source: patent US8895549B2

Quick reference for inhibition at 0.93 µM among some compounds
targetSystem: PI3Kβ (complex of human p110β and human p85α) (Homo sapiens (Human), UniProt P42338)
Sequence (P42338 whole entry): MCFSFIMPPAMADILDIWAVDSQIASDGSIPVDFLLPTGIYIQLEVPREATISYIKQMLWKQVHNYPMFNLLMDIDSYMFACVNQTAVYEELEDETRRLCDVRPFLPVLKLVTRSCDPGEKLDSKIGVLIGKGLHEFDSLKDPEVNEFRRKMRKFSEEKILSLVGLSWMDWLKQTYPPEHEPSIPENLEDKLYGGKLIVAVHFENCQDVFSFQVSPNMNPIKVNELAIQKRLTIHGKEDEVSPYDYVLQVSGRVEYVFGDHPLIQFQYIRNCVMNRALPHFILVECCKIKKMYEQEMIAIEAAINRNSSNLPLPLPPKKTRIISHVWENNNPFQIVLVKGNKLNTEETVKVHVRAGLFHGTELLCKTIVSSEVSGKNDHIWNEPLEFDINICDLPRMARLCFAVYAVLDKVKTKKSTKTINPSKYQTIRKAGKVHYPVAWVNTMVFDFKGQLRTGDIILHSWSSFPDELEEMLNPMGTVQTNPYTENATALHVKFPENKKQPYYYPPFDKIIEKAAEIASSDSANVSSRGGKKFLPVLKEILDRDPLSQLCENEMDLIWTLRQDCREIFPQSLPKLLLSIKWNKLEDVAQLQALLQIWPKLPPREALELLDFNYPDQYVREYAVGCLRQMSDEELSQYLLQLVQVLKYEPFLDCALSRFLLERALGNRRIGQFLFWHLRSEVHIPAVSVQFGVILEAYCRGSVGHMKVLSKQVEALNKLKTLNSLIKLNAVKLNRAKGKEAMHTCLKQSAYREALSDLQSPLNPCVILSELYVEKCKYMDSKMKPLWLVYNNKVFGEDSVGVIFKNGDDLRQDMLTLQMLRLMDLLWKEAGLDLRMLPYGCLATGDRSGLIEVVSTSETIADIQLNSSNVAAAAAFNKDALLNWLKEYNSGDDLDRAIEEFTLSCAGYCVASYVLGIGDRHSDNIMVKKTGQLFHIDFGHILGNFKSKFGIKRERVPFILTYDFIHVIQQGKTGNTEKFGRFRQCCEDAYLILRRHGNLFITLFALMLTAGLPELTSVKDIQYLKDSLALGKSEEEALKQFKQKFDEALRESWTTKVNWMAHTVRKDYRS
Sequence (P27986 whole entry partner): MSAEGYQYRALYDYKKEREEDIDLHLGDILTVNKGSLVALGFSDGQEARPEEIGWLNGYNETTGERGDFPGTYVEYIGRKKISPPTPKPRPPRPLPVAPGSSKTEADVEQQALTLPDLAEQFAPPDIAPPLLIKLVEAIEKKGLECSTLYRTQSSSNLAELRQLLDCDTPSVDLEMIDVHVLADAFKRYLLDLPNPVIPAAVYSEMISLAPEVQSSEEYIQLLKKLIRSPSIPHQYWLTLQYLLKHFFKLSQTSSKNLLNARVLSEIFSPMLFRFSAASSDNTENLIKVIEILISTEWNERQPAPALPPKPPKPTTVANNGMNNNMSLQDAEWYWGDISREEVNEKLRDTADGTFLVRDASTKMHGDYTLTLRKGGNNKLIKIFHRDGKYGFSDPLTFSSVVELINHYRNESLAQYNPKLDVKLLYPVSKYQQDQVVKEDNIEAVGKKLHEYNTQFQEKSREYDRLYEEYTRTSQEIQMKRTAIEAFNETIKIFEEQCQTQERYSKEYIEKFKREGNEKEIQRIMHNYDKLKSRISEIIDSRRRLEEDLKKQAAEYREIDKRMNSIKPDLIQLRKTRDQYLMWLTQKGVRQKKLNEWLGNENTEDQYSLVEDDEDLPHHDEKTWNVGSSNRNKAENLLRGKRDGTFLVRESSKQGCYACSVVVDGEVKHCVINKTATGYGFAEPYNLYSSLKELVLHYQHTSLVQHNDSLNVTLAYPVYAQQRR
assayInfo: PI3Kβ kinase assay (HTRF-based PI3K inhibition assay)
Format: biochemical
conditionDescription: 0.93 μM compound; read-out: PI3K beta average % Inhibition at 0.93 μM
Output spec: scalar in %, unitless text.

Study these solved cases before continuing.
compound: COc1c(OCC(O)CN2CCOCC2)ccc2c1N=C(NC(=O)c1cccnc1)N1CCN=C21 (stereo not shown) [Comparative Example 1, reference compound]
targetSystem: PI3Kβ (complex of human p110β and human p85α) (Homo sapiens (Human), UniProt P42338)
measValue: 92.1

compound: COc1c(OC[C@H](O)CN2CCOCC2)ccc2c1N=C(NC(=O)c1cccnc1)N1CCN=C21 [Example 2]
targetSystem: PI3Kβ (complex of human p110β and human p85α) (Homo sapiens (Human), UniProt P42338)
measValue: 94.4

compound: COc1c(OC[C@H](O)CN2CCC2)ccc2c1N=C(NC(=O)c1cccnc1)N1CCN=C21 [Example 7]
targetSystem: PI3Kβ (complex of human p110β and human p85α) (Homo sapiens (Human), UniProt P42338)
measValue: 97.3

What value of measured inhibition at 0.93 µM is listed for COc1c(OC[C@H](O)CN2CCOCC2)ccc2c1N=C(NC(=O)c1sc(N)nc1C)N1CCN=C21 [Example 39] ?
122

* * *

targetSystem: PI3Kβ (complex of human p110β and human p85α) (Homo sapiens (Human), UniProt P42338)
assayInfo: PI3Kβ kinase assay (HTRF-based PI3K inhibition assay)
Format: biochemical
conditionDescription: 10 μM ATP, 10 μM PIP2, 20 min at 22° C.; read-out: average IC50 in the PI3K beta biochemical assay
pIC50: −log10 of the molar value.
Quick reference for pIC50 among some compounds

entrySmiles: COc1c(OC[C@H](O)CN2CCCCC2)ccc2c1N=C(NC(=O)c1cccnc1C)N1CCN=C21
measurementKind: pIC50
measValue: 7.30 to 8.00

entrySmiles: COc1c(OC[C@H](O)CN2CCC2)ccc2c1N=C(NC(=O)c1cccnc1C)N1CCN=C21
measurementKind: pIC50
measValue: 7.30 to 8.00

entrySmiles: COc1c(OC[C@H](O)CN2CCCC2)ccc2c1N=C(NC(=O)c1cccnc1C)N1CCN=C21
measurementKind: pIC50
measValue: 7.30 to 8.00

entrySmiles: COc1c(OC[C@H](O)CN2CCCCC2)ccc2c1N=C(NC(=O)c1cncs1)N1CCN=C21
measurementKind: pIC50
measValue: 7.30 to 8.00

entrySmiles: COc1c(OC[C@H](O)CN2CCCC2)ccc2c1N=C(NC(=O)c1cnco1)N1CCN=C21
measurementKind: pIC50
measValue: < 7.30

// below: pIC50 requested for another compound
Reported pIC50 for PI3Kβ (complex of human p110β and human p85α) (Homo sapiens (Human), UniProt P42338), given COc1c(OC[C@H](O)CN2C[C@@H](C)O[C@@H](C)C2)ccc2c1N=C(NC(=O)c1cnc(N)nc1)N1CCN=C21 ?
7.30 to 8.00

* * *

targetSystem: PI3Kβ (complex of human p110β and human p85α) (Homo sapiens (Human))
assayInfo: PI3Kβ kinase assay (HTRF-based PI3K inhibition assay)
Assay type: biochemical
conditionDescription: 0.93 μM compound; read-out: PI3K beta average % Inhibition at 0.93 μM
Quick reference for inhibition at 0.93 µM among some compounds
Output spec: scalar in %, unitless text.

Study these solved cases before continuing.
compound: COc1c(OCC(O)CN2CCOCC2)ccc2c1N=C(NC(=O)c1cnc(N)nc1)N1CCN=C21 (stereo not shown)
valueUnit: %
measValue: 93.3
//
compound: COc1c(OC[C@H](O)CN2CCOCC2)ccc2c1N=C(NC(=O)c1cncs1)N1CCN=C21
valueUnit: %
measValue: 95.5
//
compound: COc1c(OC[C@H](O)CN2CCCC2)ccc2c1N=C(NC(=O)c1cncnc1)N1CCN=C21
valueUnit: %
measValue: 94.7

// below: inhibition at 0.93 µM requested for another compound
What value of measured inhibition at 0.93 µM is listed for COc1c(OC[C@H](O)CN(C)C)ccc2c1N=C(NC(=O)c1cccnc1)N1CCN=C21 ?
95.5

* * *

targetSystem: PI3Kβ (complex of human p110β and human p85α) (Homo sapiens (Human), UniProt P42338)
assayInfo: PI3Kβ kinase assay (HTRF-based PI3K inhibition assay)
Assay type: biochemical
conditionDescription: 0.93 μM compound; read-out: PI3K beta average % Inhibition at 0.93 μM
Structures can show the parent of a compound that is named as a salt.
measurementKind: inhibition at 0.93 µM (%)
Output spec: scalar in %, unitless text.

Study these solved cases before continuing.
compound: COc1c(OC[C@H](O)CN(C(C)C)C(C)C)ccc2c1N=C(NC(=O)c1cncs1)N1CCN=C21
targetSystem: PI3Kβ (complex of human p110β and human p85α) (Homo sapiens (Human), UniProt P42338)
valueUnit: %
inhibition at 0.93 µM: 99.3

compound: COc1c(OC[C@H](O)CN2CCCCC2)ccc2c1N=C(NC(=O)c1cncs1)N1CCN=C21
targetSystem: PI3Kβ (complex of human p110β and human p85α) (Homo sapiens (Human), UniProt P42338)
valueUnit: %
inhibition at 0.93 µM: 93.7

compound: COc1c(OC[C@H](O)CN2CC3CCC(C2)O3)ccc2c1N=C(NC(=O)c1cnc(N)nc1)N1CCN=C21 [Example 28, dihydrochloride]
targetSystem: PI3Kβ (complex of human p110β and human p85α) (Homo sapiens (Human), UniProt P42338)
valueUnit: %
inhibition at 0.93 µM: 102

compound: COc1c(OC[C@H](O)CN2CCCC2)ccc2c1N=C(NC(=O)c1cncs1)N1CCN=C21
targetSystem: PI3Kβ (complex of human p110β and human p85α) (Homo sapiens (Human), UniProt P42338)
valueUnit: %
inhibition at 0.93 µM: 93.9

compound: COc1c(OC[C@H](O)CN(C(C)C)C(C)C)ccc2c1N=C(NC(=O)c1cccnc1)N1CCN=C21
targetSystem: PI3Kβ (complex of human p110β and human p85α) (Homo sapiens (Human), UniProt P42338)
valueUnit: %
inhibition at 0.93 µM: 115

compound: COc1c(OC[C@H](O)CN2CCCC2)ccc2c1N=C(NC(=O)c1cccnc1)N1CCN=C21
targetSystem: PI3Kβ (complex of human p110β and human p85α) (Homo sapiens (Human), UniProt P42338)
valueUnit: %
inhibition at 0.93 µM: 101

compound: COc1c(OC[C@H](O)CN2CC3CCC(C2)O3)ccc2c1N=C(NC(=O)c1cccnc1)N1CCN=C21
targetSystem: PI3Kβ (complex of human p110β and human p85α) (Homo sapiens (Human), UniProt P42338)
valueUnit: %
inhibition at 0.93 µM: 104

// below: inhibition at 0.93 µM requested for another compound
Reported inhibition at 0.93 µM for PI3Kβ (complex of human p110β and human p85α) (Homo sapiens (Human), UniProt P42338), given COc1c(OC[C@H](O)CN2CCCCC2)ccc2c1N=C(NC(=O)c1cccnc1)N1CCN=C21 ?
97.2

* * *

targetSystem: PI3Kβ (complex of human p110β and human p85α) (Homo sapiens (Human), UniProt P42338)
assayInfo: PI3Kβ kinase assay (HTRF-based PI3K inhibition assay);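 also: Kinase-made PIP3 detected by HTRF, displacing biotinylated PIP3 tracer from a complex of Europium anti-GST antibody, GST-fused PH domain and Streptavidin-APC, read as Europium-to-APC energy transfer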
Assay type: biochemical
conditionDescription: 0.93 μM compound; read-out: PI3K beta average % Inhibition at 0.93 μM
measurementKind: inhibition at 0.93 µM (%)
Output spec: scalar in %, unitless text.

Study these solved cases before continuing.
entrySmiles: COc1c(OC[C@H](O)CN(C(C)C)C(C)C)ccc2c1N=C(NC(=O)c1cccnc1C)N1CCN=C21
valueUnit: %
inhibition at 0.93 µM: 98.6
//
entrySmiles: COc1c(OC[C@H](O)CN2C[C@@H](C)O[C@@H](C)C2)ccc2c1N=C(NC(=O)c1cnc(N)nc1)N1CCN=C21
valueUnit: %
inhibition at 0.93 µM: 102
//
entrySmiles: COc1c(OC[C@H](O)CN2CCOCC2)ccc2c1N=C(NC(=O)c1cnc3[nH]cnc3c1)N1CCN=C21
valueUnit: %
inhibition at 0.93 µM: 108
//
entrySmiles: COc1c(OC[C@H](O)CN2CCOCC2)ccc2c1N=C(NC(=O)c1ccc(N)nc1C)N1CCN=C21
valueUnit: %
inhibition at 0.93 µM: 119
//
entrySmiles: COc1c(OC[C@H](O)CN2CCC2)ccc2c1N=C(NC(=O)c1cccnc1C)N1CCN=C21
valueUnit: %
inhibition at 0.93 µM: 87.7
//
entrySmiles: COc1c(OC[C@H](O)CN2CCC2)ccc2c1N=C(NC(=O)c1cncs1)N1CCN=C21
valueUnit: %
inhibition at 0.93 µM: 102

// below: inhibition at 0.93 µM requested for another compound
What value of measured inhibition at 0.93 µM is listed for COc1c(OC[C@H](O)CN2C[C@@H](C)O[C@@H](C)C2)ccc2c1N=C(NC(=O)c1cccnc1C)N1CCN=C21 ?
87.2
